Biological target: human cathepsin F (Homo sapiens)
Sequence (Q9UBX1 271-484): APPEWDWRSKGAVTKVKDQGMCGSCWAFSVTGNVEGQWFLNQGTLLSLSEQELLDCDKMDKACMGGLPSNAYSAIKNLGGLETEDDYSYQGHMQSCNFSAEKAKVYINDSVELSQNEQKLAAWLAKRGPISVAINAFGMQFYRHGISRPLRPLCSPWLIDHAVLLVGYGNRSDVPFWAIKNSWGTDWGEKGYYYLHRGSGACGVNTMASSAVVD
Experiment: Cathepsin F Assay
Assay type: biochemical
Settings: IP from dose response curve; Z-Phe-Arg-AMC substrate, pH 5.5; read-out: hCat F (IP (nM))
Please provide measured IC50 for the entries that follow.
Don't forget the unit after the value.

Record excerpt, results attached:
{"COMPOUND": "N#CCNC(=O)[C@H]1CC(F)(F)CC[C@@H]1c1nn(-c2ccc(F)cc2)cc1-c1ccc(N2CCS(=O)(=O)CC2)cc1", "TARGET UNDER TEST": "human cathepsin F (Homo sapiens)", "IC50": "1400 nM"}
{"COMPOUND": "Cc1c(-c2ccc(N3CCS(=O)(=O)CC3)cc2)c([C@@H]2CCC(F)(F)C[C@H]2C(=O)NC2(C#N)CC2)nn1-c1ccc(F)cc1", "TARGET UNDER TEST": "human cathepsin F (Homo sapiens)", "IC50": "168 nM"}
{"COMPOUND": "CN=S1(=O)CCN(c2ccc(-c3cn(-c4ccc(F)cn4)nc3[C@@H]3CCCC[C@H]3C(=O)NC3(C#N)CC3)cc2)CC1", "TARGET UNDER TEST": "human cathepsin F (Homo sapiens)", "IC50": "945 nM"}
{"COMPOUND": "N#CC1(NC(=O)[C@@H]2CCCC[C@H]2c2nn(-c3ccc(C(F)(F)F)cn3)cc2-c2ccc(N3CCS(=O)(=O)CC3)cc2)CC1", "TARGET UNDER TEST": "human cathepsin F (Homo sapiens)", "IC50": "395 nM"}
{"COMPOUND": "N#CC1(NC(=O)[C@@H]2CC(F)(F)CC[C@H]2c2nn(-c3ccc(F)cn3)c(CO)c2-c2ccc(N3CCS(=O)(=O)CC3)cc2)CC1 [Example 70]", "TARGET UNDER TEST": "human cathepsin F (Homo sapiens)", "IC50": "185 nM"}

# next compound below
Query: Which IC50 is reported for this compound? `N#CC1(NC(=O)[C@@H]2CCCC[C@H]2c2nn(-c3cccc(F)c3)cc2-c2ccc(N3CCS(=O)(=O)CC3)cc2)CC1`
Response: 268 nM

----------
Molecular target: human cathepsin F (Homo sapiens)
Assay: Cathepsin F Assay
Type: biochemical
Conditions: IP from dose response curve; Z-Phe-Arg-AMC substrate, pH 5.5; read-out: hCat F (IP (nM))
Please provide measured IC50 for the entries that follow.
Answers are plain numbers, in nM.

{"SMILES TEXT": "CC(C)(O)c1ccc(-n2cc(-c3ccc(N4CCS(=O)(=O)CC4)cc3)c([C@@H]3CCCC[C@H]3C(=O)NC3(C#N)CC3)n2)cc1", "IC50 / nM": 764}
{"SMILES TEXT": "Cc1c(-c2ccc(N3CCS(=O)(=O)CC3)cc2)c([C@@H]2CCCC[C@H]2C(=O)N[C@@H](C)C#N)nn1-c1ncccc1F", "IC50 / nM": 1990}
{"SMILES TEXT": "Cc1ccc(-n2cc(-c3ccc(N4CCS(=O)(=O)CC4)cc3)c([C@@H]3CCCC[C@H]3C(=O)NC3(C#N)CC3)n2)c(C#N)c1", "IC50 / nM": 1400}

# next molecule below
Query: Which IC50 is reported for this molecule? `N#Cc1cc(F)ccc1-n1cc(-c2ccc(N3CCS(=O)(=O)CC3)cc2)c([C@@H]2CCCC[C@H]2C(=O)NC2(C#N)CC2)n1`
Response: 1920

----------
Molecular target: human cathepsin K (UniProt P43236, Y175D/V274L, species not given)
Experiment: Cathepsin K Assay
Assay type: biochemical
Settings: IP from dose response curve; Z-Leu-Arg-AMC substrate, pH 5.5; read-out: hrbCat K (IP (nM))
Please provide measured IC50 for the entries that follow.
Numbers only, in nM.

Record excerpt, results attached:
{"COMPOUND": "N#CCNC(=O)C1CC(F)(F)CCC1c1nn(-c2ccc(F)cc2)cc1-c1ccc(N2CCS(=O)(=O)CC2)cc1 (racemic)", "IC50 [nM]": 0.81}
{"COMPOUND": "CC(C)[C@@H](C#N)NC(=O)[C@@H]1CCCC[C@H]1c1nn(-c2ccc(F)cc2)c(CO)c1-c1ccc(N2CCS(=O)(=O)CC2)cc1", "IC50 [nM]": 11}
{"COMPOUND": "N#CC1(NC(=O)[C@@H]2CCCC[C@H]2c2nn(-c3ccncc3)cc2-c2ccc(N3CCS(=O)(=O)CC3)cc2)CC1", "IC50 [nM]": 0.32}

Hi team, please reply with IC50 for each item in this list.
1. CS(=O)(=O)N1CCN(C(=O)c2ccc(-c3cn(-c4ccc(F)cc4)nc3[C@@H]3CCCC[C@H]3C(=O)NC3(C#N)CC3)cc2)CC1
2. N#CC1(NC(=O)[C@@H]2CCCC[C@H]2c2nn(-c3ccc(F)cc3)cc2-c2ccc(N3CCS(=O)(=NCC(F)(F)F)CC3)cc2)CC1
3. N#CC1(NC(=O)[C@H]2CC(F)(F)CC[C@@H]2c2nn(-c3ccc(F)cc3)cc2-c2ccc(N3CCS(=O)(=O)CC3)cc2)CC1
4. N#CC1(NC(=O)[C@@H]2C[C@@H](F)CC[C@H]2c2nn(-c3ncccc3F)cc2-c2ccc(N3CCS(=N)(=O)CC3)cc2)CC1
5. N#Cc1ccc(-n2cc(-c3ccc(N4CCS(=O)(=O)CC4)cc3)c([C@@H]3CCCC[C@H]3C(=O)NC3(C#N)CC3)n2)cc1
6. N#CC1(NC(=O)[C@@H]2CC(F)(F)CC[C@H]2c2nn(-c3ccc(F)cn3)c(CO)c2-c2ccc(N3CCS(=O)(=O)CC3)cc2)CC1 [Example 68]
7. N#CC1(NC(=O)[C@@H]2CCCC[C@H]2c2nn(-c3ccccc3C(F)(F)F)cc2-c2ccc(N3CCS(=O)(=O)CC3)cc2)CC1

Response:
5.02
2.1
51.6
5.69
0.87
1.41
6.72

Hi team, please reply with IC50 for each item in this list.
1. CS(=O)(=O)C1CN(c2ccc(-c3cn(-c4ccc(F)cc4)nc3[C@@H]3CCCC[C@H]3C(=O)NC3(C#N)CC3)cc2)C1
2. N#CC1(NC(=O)[C@@H]2CCCC[C@H]2c2nn(-c3ncccn3)cc2-c2ccc(N3CCS(=O)(=O)CC3)cc2)CC1

Response:
[2.57, 34.7]

Query: Which IC50 is reported for this compound? `N#CC1(NC(=O)[C@@H]2CCCC[C@H]2c2nn(-c3ncccc3F)cc2-c2ccc(N3CCS(=O)(=O)CC3)cc2)CC1`
Response: 5.59

----------
Please provide measured IC50 for the entries that follow.
Biological target: human cathepsin K (UniProt P43236, Y175D/V274L, species not given)
Assay: Cathepsin K Assay
Type: biochemical
Details: IP from dose response curve; Z-Leu-Arg-AMC substrate, pH 5.5; read-out: hrbCat K (IP (nM))
Answers are plain numbers, in nM.

Record excerpt, results attached:
{"COMPOUND": "N#CC1(NC(=O)[C@@H]2CC3CC3C[C@H]2c2nn(-c3ccc(F)cc3)cc2-c2ccc(N3CCS(=O)(=O)CC3)cc2)CC1 (single isomer, unassigned) [Example 3]", "IC50 / nM": 0.84}
{"COMPOUND": "N#CC1(NC(=O)[C@@H]2CCCC[C@H]2c2nn(-c3ccc(F)cc3)cc2-c2ccc(N3CCS(=N)(=O)CC3)cc2)CC1", "IC50 / nM": 1.84}
{"COMPOUND": "CC(C)[C@@H](C#N)NC(=O)[C@@H]1C[C@@H](F)CC[C@H]1c1nn(-c2ncccc2F)cc1-c1ccc(N2CCS(=N)(=O)CC2)cc1", "IC50 / nM": 16}
{"COMPOUND": "COc1cccc(-n2cc(-c3ccc(N4CCS(=O)(=O)CC4)cc3)c([C@@H]3CCCC[C@H]3C(=O)NC3(C#N)CC3)n2)c1", "IC50 / nM": 0.99}
{"COMPOUND": "N#CC1(NC(=O)[C@@H]2CCCC[C@H]2c2nn(-c3ccc(Cl)cc3)cc2-c2ccc(N3CCS(=O)(=O)CC3)cc2)CC1", "IC50 / nM": 0.73}

Hi team, please reply with IC50 for each item in this list.
1. N#CC1(NC(=O)[C@@H]2CCCC[C@H]2c2nn(-c3cccnn3)cc2-c2ccc(N3CCS(=O)(=O)CC3)cc2)CC1
2. CN=S1(=O)CCN(c2ccc(-c3cn(-c4ccc(F)cc4)nc3[C@@H]3CCCC[C@H]3C(=O)NC3(C#N)CC3)cc2)CC1

Response:
1.61
1.92

Hi team, please reply with IC50 for each item in this list.
1. N#CC1(NC(=O)[C@@H]2CCCC[C@H]2c2nn(-c3ccccn3)cc2-c2ccc(N3CCS(=O)(=O)CC3)cc2)CC1
2. N#CC1(NC(=O)[C@@H]2CC3CC3C[C@H]2c2nn(-c3ccc(F)cn3)cc2-c2ccc(N3CCS(=O)(=O)CC3)cc2)CC1 (single isomer, unassigned) [Example 152]

Response:
1: 0.52; 2: 1.06

Hi team, please reply with IC50 for each item in this list.
1. N#CC1(NC(=O)[C@@H]2CCCC[C@H]2c2nn(-c3ccc(F)cn3)cc2-c2ccc(N3CCS(=N)(=O)CC3)cc2)CC1
2. N#CC1(NC(=O)[C@@H]2CC(F)(F)CC[C@H]2c2nn3ccccc3c2-c2ccc(C(=O)N3CCOCC3)cc2)CC1
3. CN=S1(=O)CCN(c2ccc(-c3cn(-c4ccc(F)cc4)nc3[C@@H]3CC[C@H](F)C[C@H]3C(=O)NC3(C#N)CC3)cc2)CC1

Response:
1. 1.53
2. 4.84
3. 3
